Tested on: K4 kissing-loop RNA reporter;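 further: bound reporter read as fluorescence of individual clusters on recovered sequencing chips by microscopy, with normalized cluster intensities fitted with a binding model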
Experiment: apparent KD of K4 kissing-loop reporter; higher = weaker reporter binding
Conditions: Eterna round: R107; input ligand: arginine 13.2 mM
Kindly return true (1) if reported apparent KD of K4 kissing-loop reporter is no lower than 100 nM; return false (0) if it is lower.

* AAUAACUAGUAUAUUUGUAAUAAAACAGAUACCAGUGAUAAUAAACACCCUUGGCAGCUGAUCGAGUGAUGUUCGUUUAUUUUAA [JR_SSTheophyA_Sub004] | false (0)
* GGAUAGGACAGAGGAUAUGGGCUAGGCAAGAAUAACUUGUCUAGCAAAUCCAUGAGGAGUGAUGUUCCAGAAGGUUGUCCUAUCG [FmnBX 1 U75] | true (1)
* CUUAAGAUAUGAGUGAUGUUUAUGUCCGAAGGAGCGUGCGAAAGUACAGGUAGGUCGCGGAUGUGAGUGAUGUUUAUGUAAGCGA [KL-XArg-A14 #analogue] | false (0)
* GUGUGUGUCGGAGGAUAUGCGGUGGGUGUGGGCGGAUUAGUGAUGUUGGUUGUGGUGGUGGUGGGUGUAGAAGGUUGGUGUGUGU [RHig 3/7 C] | true (1)
* UGAUACCAGACGGCCGCCACUCCCGCAGGUCAAAGACCUGCGAAGAAGGUUCUUUAGUGAUGUUGGAGGACCGGGUCUGGUAUCU [FiskerMod 21 - Jieux - Exclusion - Tryptophan B] | true (1)
* UCCAAUAUUUAUUGAUCCGCCUCGCAUCAACGAGGACCGGUACGGCCGCCACUCGUGCCUAGGUAGUGAUGUUACUUAGUUUACU [theeternabot_sameState_KL_Trp_A_32] | true (1)

###

System: MS2 coat protein
Experiment: apparent KD of MS2 coat protein; designed switch direction (-1 OFF switch, 1 ON switch): 1; higher = weaker reporter binding
Settings: Eterna round: R98; input ligand: none
measurement type: apparent KD of MS2 coat protein

• CCGGAAACGGGUAGCUGACAUGAGGAUCACCCAUGUGAAUCUGAGGAUAUGGAUGGUAAUUCCAUCCAGAAGGCAGUCAGCUAC [Mat - Same State NG 3 - JL Mod - D82] = 551 nM
• GCACUCAAGUUAGGAUAUGGAUCGGAAAACGAUCCAGAAGGAACAUGGGAACAUGAGGAUCACCCAUGUUCCAGAAACGAGUGC [SameSame 1 - Jieux - Same State NG 1] = 733 nM
• GGCGAUCAGGCUAACAUGAGGAUCACCCAUGUGGACUCAUGGUAGGAUAUGCUGUACAAAGUACAGCAGAAGGGCCGGAGAGCC [Mat - Same State NG 3 - JL Mod - D2] = 152 nM
• AUUAAUGGGUGAGGAUAUGCACAGGAUCACCGUGUAGAAGGCAUCAGGUAGAAGGUGCAGAGGAUCACCCUGUAAGGAUAUAUC [pwkr2 ssNG1 DX.13] = 998 nM
• GCAGAAGGUGCGGAGGAUCACCCUGUAAGGAUAUGCAUUAGCAAGGAUAUACAGAGGAUCACCCUGUAGAAGGUGCACUACAAA [pwkr2 ssNG3 DX.5] = 1890 nM

###

System: MS2 coat protein
Test: apparent KD of MS2 coat protein; designed switch direction (-1 OFF switch, 1 ON switch): -1; higher = weaker reporter binding
Conditions: input ligand: none
measurement type: apparent KD of MS2 coat protein

* UAUCAGCAAGUGAGGAUAUAGAGAACGGUUGUUGGCUAGAAGGCACUUGAGGAUCACCCAAGUCGCAAAGUGGC [Mamausonbe] (Eterna round: R97, puzzle: Brourd's mod of Exclusion 4) | 29.3 nM
* ACGCGUGAAGGAUAUACGCGGGCCCAAGCGGAUCACACCGCACAUGAGGAUCACCCAUGUAGAAGGUCGCAAAA [r4x2dt3] (Eterna round: R97, puzzle: Exclusion 2) | 13.9 nM
* UCAGUGUUAGGAUAUCGAGCAAGUUGAAUAUUUGUCUGUAUCGAGAAGGGACAUGAGGAUCACCCAUGUGAGGC [Eternabot (L1) Solution 65] (Eterna round: R97, puzzle: Exclusion 4) | 69.9 nM
* ACGCUGUGAGGAUAUACAUGAGGAUCACCCAUGUUAAGGAAGUCUUGGUUAAUUUGGAGUAGAAGGCGCUUAUU [JR_Ex3_Sub016] (Eterna round: R97, puzzle: Exclusion 3) | 34.9 nM
* AAAUCUGAGAAGGAUAUGGUACAGGAAAUGGUGCCAGAAGGUUUCACAUGAGGAUCACCCAUGUCGAAUAGUGA [EX6 #65] (Eterna round: R97, puzzle: Exclusion 6) | 19.3 nM
* CGAAUUAUAGGAUAUACAUGAGGAUCACCCAUGUAACCGUGACUGGGAUGCGUCUCAAGUAGAAGGAUAGGCGC [Eternabot (L1) Solution 9] (Eterna round: R97, puzzle: Exclusion 3) | 14.3 nM
* AUAGUAGAAGUGAGGAUAUCGUAGAUUUUAGGAAACGAGAAGGCACAUGAGGAUCACCCAUGUAAGAUGGAGGU [JR_BMOE4_Sub051] (Eterna round: R96, puzzle: Brourd's mod of Exclusion 4) | 132 nM
* UAUCGGGACUGAGGAUAUUCGUUCGAACGCGAAGAAGAAGGUAGUGUCAGGGACAUGAGGAUCACCCAUGUGAUUUCAGUCCCA [JL ViennaUCT Erinle mod 5] (Eterna round: R96, puzzle: Exclusion NG 1) | 99 nM
* GUUUUGUGAGGAUAUCCCUAUCAUCUAGCUGACUAGAUGGUGGAGAAGGCACAUGAGGAUCACCCAUGUGGGAG [Eternabot (L1) Solution 3] (Eterna round: R97, puzzle: Exclusion 4) | 90.1 nM
* UAACUACAUGAGGAUCACCCAUGUCAGGAUAUGCCGUUAAAUUAACAUCAACAUACGGGUAGAAGGGACAGCGU [1st #4] (Eterna round: R97, puzzle: Exclusion 1) | 29.2 nM

Reference for the values: the supplement of paper PMC9170038
